tested on: Vero E6 infected with SARS-CoV-2; test: morphology score (similarity to uninfected cells); higher = more like uninfected cells; conditions: 24 h
Entry flag: Fulfilled if morphology score reaches 0.1; Not fulfilled if it does not.

Worked examples follow.
c1ccc(OCc2ccc(CCCN3CCOCC3)cc2)cc1 [fomocaine] (10 µM); Not fulfilled
NCCNCCNCCN [trientine] (10 µM); Not fulfilled
CCN(CC)C(=O)/C(C#N)=C/c1cc(O)c(O)c([N+](=O)[O-])c1 [entacapone] (10 µM); Fulfilled
Cc1cc(-c2ccccc2)nnc1NCCN1CCOCC1 [minaprine] (10 µM); Fulfilled
O=C(Nc1ncc(SCCN2CCCC2)s1)[C@]1(c2ccc(S(=O)(=O)C3CC3)cc2)C[C@H]1C1CCCCC1 (10 µM); Fulfilled
Cc1ccccc1OCC(O)CO (centres undefined) [mephenesin] (10 µM); Fulfilled
CC(C)(C)c1nc(-c2cccc(NS(=O)(=O)c3c(F)cccc3F)c2F)c(-c2ccnc(N)n2)s1 [dabrafenib] (10 µM); Fulfilled
COc1nccnc1NS(=O)(=O)c1ccc(N)cc1 [sulfametopyrazine] (10 µM); Not fulfilled

With those in mind, consider the next compound.
## Task Does morphology score meet or surpass 0.1 for NC(=O)c1ccc(I)c([N+](=O)[O-])c1 [iniparib] (10 µM) ?
## Result Not fulfilled

* * *

So I've got a bunch of molecules here, and I need their inhibition of SARS-CoV-2 cytopathic effect values.
system: Vero E6 infected with SARS-CoV-2; assay: inhibition of SARS-CoV-2 cytopathic effect; higher = more antiviral protection, active = above 15; details: 833.33 nM; 48 h
Answers are plain numbers, in %.

Worked examples follow.
CCOc1ccc(Cc2nccc3cc(OCC)c(OCC)cc23)cc1OCC; -7.91
CNCCCCOc1ccccc1Cc1ccccc1; -0.82
C[C@@]1(CO)[C@H](O)CC[C@@]2(C)[C@H]1CC[C@H]1C[C@@H]3C[C@@]12CC[C@]3(O)CO; -0.76
CC(=O)[C@H]1CC[C@H]2[C@@H]3CC[C@H]4C[C@H](O)CC[C@]4(C)[C@H]3CC[C@]12C; 0.8

Proceeding to the next molecule to report its inhibition of SARS-CoV-2 cytopathic effect.
## Task Return inhibition of SARS-CoV-2 cytopathic effect for the following molecule: `C[C@]12CC[C@@H]3c4ccc(O)cc4CC[C@H]3[C@@H]1CC[C@@H]2O`
## Result -2.04

* * *

So I've got a bunch of molecules here, and I need their inhibition of SARS-CoV-2 cytopathic effect values.
test system: Vero E6 infected with SARS-CoV-2; experiment: inhibition of SARS-CoV-2 cytopathic effect; higher = more antiviral protection, active = above 15; settings: 8.33 nM; 48 h
Give bare numbers, in %.

C=C1c2cccc(O)c2C(=O)C2=C(O)[C@]3(O)C(=O)C(C(N)=O)=C(O)[C@@H](N(C)C)[C@@H]3[C@@H](O)[C@H]12; -0.1
Cn1c(=O)c2[nH]c(Br)nc2n(C)c1=O; 0.19
CC(C)[C@H]1C(=O)N[C@@H](CCCNC(=N)N)C(=O)NCC(=O)N[C@@H](CC(=O)O)C(=O)N[C@H](Cc2ccccc2)C(=O)N1C [cilengitide]; -0.5

Proceeding to the next molecule to report its inhibition of SARS-CoV-2 cytopathic effect.
## Task Return inhibition of SARS-CoV-2 cytopathic effect for the following molecule: CCC(=O)OCC(=O)[C@@]1(OC(=O)CC)[C@H](C)C[C@H]2[C@H]3[C@H]([C@@H](O)C[C@@]21C)[C@@]1(C)C=CC(=O)C=C1C[C@H]3Cl [alclometasone-dipropionate]
## Result 0.48

* * *

So I've got a bunch of molecules here, and I need their inhibition of SARS-CoV-2 cytopathic effect values.
system: Vero E6 infected with SARS-CoV-2; assay: inhibition of SARS-CoV-2 cytopathic effect; higher = more antiviral protection, active = above 15; conditions: 100 nM; 48 h
Numbers only, in %.

Worked examples follow.
C[C@@H](CN1CCC(Cc2ccccc2)CC1)[C@@H](O)c1ccc(O)cc1; -0.78
C[C@@H](C(=O)O)c1ccc(-c2ccccc2)c(F)c1 (racemic) [flurbiprofen-(+/-)]; 1.91
CC(=O)[C@H]1CC[C@H]2[C@@H]3CC=C4C[C@@H](O)CC[C@]4(C)[C@H]3CC[C@]12C [pregnenolone]; -5.44
CCCN1CCC[C@@H]2Cc3nc(N)ncc3C[C@H]21 [quinelorane]; 0.8
CC[C@@]1(O)C(=O)OCc2c1cc1n(c2=O)Cc2cc3c(CN(C)C)c(O)ccc3nc2-1 [topotecan]; -1.53

For each of the molecules below, state inhibition of SARS-CoV-2 cytopathic effect.
1. NC(=O)c1cn(Cc2c(F)cccc2F)nn1 [rufinamide]
2. Cc1cc(-c2nc(C(=O)Nc3cn(C4CCOCC4)nc3C(N)=O)co2)ccn1
3. COc1ccc2ccc(=O)oc2c1CC=C(C)C [osthol]
4. OCCOCCN1CCN(C(c2ccccc2)c2ccc(Cl)cc2)CC1 (centres undefined) [hydroxyzine]

## Result
[2.89, -0.57, 1.91, 1.56]

* * *

system: Vero E6 infected with SARS-CoV-2; experiment: inhibition of SARS-CoV-2 cytopathic effect; higher = more antiviral protection, active = above 15; details: 1 nM; 48 h
So I've got a bunch of molecules here, and I need their inhibition of SARS-CoV-2 cytopathic effect values.
Numbers only, in %.

Worked examples follow.
Cc1cc(Cn2cnc3c2C[C@@H](C(=O)O)N(C(=O)C(c2ccccc2)c2ccccc2)C3)ccc1N(C)C; -2.45
Cc1cc(CCCOc2c(C)cc(-c3noc(C(F)(F)F)n3)cc2C)on1; 2.59
COc1cc(OC)cc(C(=O)NNC(=O)Nc2cccc3ccccc23)c1; 0.29
CC(C)(O)CC(=O)O [beta-hydroxy-beta-methylbutyrate]; 3.1
CCCC(=O)O[C@]1(C(=O)CO)CC[C@H]2[C@@H]3CCC4=CC(=O)CC[C@]4(C)[C@H]3[C@@H](O)C[C@@]21C [hydrocortisone-butyrate]; -1.77
Cc1ccc(S(=O)(=O)NC2c3ccccc3Oc3ccccc32)cc1; -5.59
CC1(CN2CCC(n3c(=O)[nH]c4ccccc43)CC2)OCc2ccccc2-n2cccc21 (centres undefined) [zaldaride]; 4.94
C[C@]12C=CC(=O)C=C1CC[C@@H]1[C@@H]2CC[C@]2(C)OC(=O)CC[C@@H]12; -1.05

Proceeding to the next molecule to report its inhibition of SARS-CoV-2 cytopathic effect.
## Task Return inhibition of SARS-CoV-2 cytopathic effect for the following molecule: `CCCCCCCCCCCCCCOc1ccc(C(=O)O)o1`
## Result -3.57

* * *

system: Vero E6 infected with SARS-CoV-2; assay: morphology score (similarity to uninfected cells); higher = more like uninfected cells; conditions: 24 h
So I've got a bunch of compounds here, and I need their morphology score values.

Worked examples follow.
NCCCC[C@@H]1NC(=O)[C@@H](Cc2c[nH]c3ccccc23)NC(=O)[C@H](c2ccccc2)NC(=O)[C@@H]2C[C@@H](OC(=O)NCCN)CN2C(=O)[C@H](Cc2ccccc2)NC(=O)[C@H](Cc2ccc(OCc3ccccc3)cc2)NC1=O [pasireotide] (10 µM); -0.0469
CC[C@]12C=CCN3CC[C@@]4(c5cc([C@@]6(C(=O)OC)C[C@@H]7C[C@@H](C(C)(F)F)CN(Cc8c6[nH]c6ccccc86)C7)c(OC)cc5N(C)[C@H]4[C@@](O)(C(=O)OC)[C@@H]1OC(C)=O)[C@@H]32 [Vinflunine Ditartrate] (10 µM); -0.12
NCCc1ccc(O)c(O)c1 [dopamine] (10 µM); -0.112
CC[C@H](CO)Nc1nc(NCc2ccccc2)c2ncn(C(C)C)c2n1 [roscovitine] (10 µM); -0.0602

For each of the compounds below, state morphology score.
1. Cc1cc(-c2cc(OC(=O)c3ccccc3)ccc2Cl)cc2nnc(Nc3ccc(OCCN4CCCC4)cc3)nc12 (10 µM)
2. CN1C(=O)C(N2CCCCC2)S/C1=C\C(=O)O (stereo unspecified) [ozolinone] (10 µM)

## Result
1: -0.0439; 2: 0.00951

* * *

So I've got a bunch of molecules here, and I need their inhibition of SARS-CoV-2 cytopathic effect values.
tested on: Vero E6 infected with SARS-CoV-2; test: inhibition of SARS-CoV-2 cytopathic effect; higher = more antiviral protection, active = above 15; settings: 10000 nM; 48 h

For each of the molecules below, state inhibition of SARS-CoV-2 cytopathic effect.
1. CN(C)CCCSC(=N)N
2. CCN1/C(=C/C(C)=O)Sc2ccc(OC)cc21

## Result
2.17% (inactive)
0.79% (inactive)

For each of the molecules below, state inhibition of SARS-CoV-2 cytopathic effect.
1. COc1ccc(-c2coc3cc(O)ccc3c2=O)cc1
2. O=c1[nH]c(CCl)nc2sc3c(c12)CCCC3
3. NC(=O)CCCCn1ccc(/N=C(\N)NCC(F)(F)F)n1
4. COC(=O)C1=C(C)N(C)C(C)=C(C(=O)OC)C1c1ccc(C(F)(F)F)cc1
5. O=C(O)C[CH2][Ge](=[O])[O][Ge](=[O])[CH2]CC(=O)O
6. O=C(O)c1ccc(CN2CCC(CN[C@@H]3C[C@H]3c3ccccc3)CC2)cc1

## Result
1. -0.02% (inactive)
2. 12.3% (inactive)
3. -0.82% (inactive)
4. 8.02% (inactive)
5. -2.33% (inactive)
6. 2.94% (inactive)

For each of the molecules below, state inhibition of SARS-CoV-2 cytopathic effect.
1. CNC(=O)c1cc(Oc2ccc(NC(=O)Nc3ccc(Cl)c(C(F)(F)F)c3)c(F)c2)ccn1
2. Cc1ccc2c(Cl)cc(Cl)c(O)c2n1
3. O=C(/C=C\n1cnc(-c2cc(C(F)(F)F)cc(C(F)(F)F)c2)n1)NNc1cnccn1 [selinexor]
4. COc1ccc(-c2sc(NC(=O)C(C)(C)C)nc2C)cc1S(=O)(=O)Nc1ccc(O)cc1
5. Cc1cc(C(=O)Nc2nc3cccc(Cl)c3n2[C@@H]2CCCCN(C(=O)/C=C/CN(C)C)C2)ccn1
6. CC(=O)N(CC(O)CO)c1c(I)c(C(=O)NCCO)c(I)c(C(=O)NCC(O)CO)c1I (stereo not given)
7. O=C(N[C@H]1CCN(C(=O)c2cc(C(F)(F)F)cc(C(F)(F)F)c2)[C@H](Cc2ccc(Cl)cc2)C1)c1ccnc2ccccc12
8. CN1CCCC(n2nc(Cc3ccc(Cl)cc3)c3ccccc3c2=O)CC1 (stereo not given)

## Result
1. 2.67% (inactive)
2. 0.43% (inactive)
3. -8.85% (inactive)
4. 5.19% (inactive)
5. 10.4% (inactive)
6. -0.58% (inactive)
7. 0.89% (inactive)
8. -3.03% (inactive)

For each of the molecules below, state inhibition of SARS-CoV-2 cytopathic effect.
1. Clc1ccccc1CN1CCc2sccc2C1
2. CCCCCCCCCCCC[N+](C)(C)CCOc1ccccc1
3. Nc1nc2[nH]cnc2c(=S)[nH]1
4. COc1cc2c(=O)c(-c3ccc(O)cc3)coc2cc1O

## Result
-1.5% (inactive)
-8.43% (inactive)
5.44% (inactive)
-1.58% (inactive)

The origin of these recorded values is the supplement of paper PMC13380429.
